PROTOCOL_NOTES: self-splicing fitness, log relative to wild type (ln ratio); higher = more splicing; Tetrahymena group I intron in knt gene, E. coli kanamycin selection, DiMSum; sequences stand for … in CUCUCU…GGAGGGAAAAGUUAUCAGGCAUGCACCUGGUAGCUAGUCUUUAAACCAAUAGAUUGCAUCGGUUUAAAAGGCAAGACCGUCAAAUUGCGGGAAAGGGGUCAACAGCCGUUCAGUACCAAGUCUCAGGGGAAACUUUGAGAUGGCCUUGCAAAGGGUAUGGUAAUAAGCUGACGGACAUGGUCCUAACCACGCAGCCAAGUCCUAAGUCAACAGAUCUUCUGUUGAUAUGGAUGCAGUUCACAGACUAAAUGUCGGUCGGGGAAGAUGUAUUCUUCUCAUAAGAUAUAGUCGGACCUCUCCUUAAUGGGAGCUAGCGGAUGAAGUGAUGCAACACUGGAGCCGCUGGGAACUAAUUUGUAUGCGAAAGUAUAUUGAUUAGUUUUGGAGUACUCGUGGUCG;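 also: selection with 25 µg/mL kanamycin versus none on LB agar overnight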
STUDY_CONDITIONS: 30 °C
Let's look at some sequences and their measured self-splicing fitness (ln).
# output: bare number, no unit

Completed entries (count: 5):
GCGCAGCAAUAUUACGAGAU: -1.85
CAGUAGCAAUAUUACGUGCG: -0.0402
CGCUAGCAAUAUUACGUAAU: -3.03
GCCGAGCAAUAUUACGCGAU: -2.66
GACAAGCAAUAUUACGCUGG: -2.84

Fill in the blank: the reported self-splicing fitness (ln) of GAUAAGCAAUAUUACGACUG is ____.
-1.18

Fill in the blank: the reported self-splicing fitness (ln) of ACAUAGCAAUAUUACGGAUA is ____.
-1.75

Fill in the blank: the reported self-splicing fitness (ln) of GUUCAGCAAUAUUACGUUUG is ____.
-2.75

Fill in the blank: the reported self-splicing fitness (ln) of UUCAAGCAAUAUUACGGCCU is ____.
-2.42

Fill in the blank: the reported self-splicing fitness (ln) of CGGCAGCAAUAUUACGCACG is ____.
-2.17

Fill in the blank: the reported self-splicing fitness (ln) of AACUAGCAAUAUUACGGACU is ____.
-1.36

Fill in the blank: the reported self-splicing fitness (ln) of UUGCAGCAAUAUUACGGACA is ____.
-0.355

###

PROTOCOL_NOTES: self-splicing fitness, log relative to wild type (ln ratio); higher = more splicing; Tetrahymena group I intron in knt gene, E. coli kanamycin selection, DiMSum; sequences stand for … in CUCUCU…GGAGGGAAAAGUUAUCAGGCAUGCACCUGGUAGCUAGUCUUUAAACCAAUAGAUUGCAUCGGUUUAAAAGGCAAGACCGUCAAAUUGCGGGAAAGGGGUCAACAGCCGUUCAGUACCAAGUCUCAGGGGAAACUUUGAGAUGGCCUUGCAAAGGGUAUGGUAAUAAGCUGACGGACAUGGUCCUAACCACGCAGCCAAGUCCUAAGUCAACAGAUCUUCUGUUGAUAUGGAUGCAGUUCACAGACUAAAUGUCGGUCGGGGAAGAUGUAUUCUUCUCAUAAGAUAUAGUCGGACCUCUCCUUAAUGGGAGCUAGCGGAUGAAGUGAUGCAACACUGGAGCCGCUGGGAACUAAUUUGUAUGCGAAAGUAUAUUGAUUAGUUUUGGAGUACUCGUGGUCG
STUDY_CONDITIONS: 37 °C
TEST_READOUT: self-splicing fitness (ln)
# output: bare number, no unit

Completed entries (count: 10):
AGCCAGCAAUAUUACGCGCU: -2.15
CGCCAGCAAUAUUACGGUGG: -2.56
UGGAAGCAAUAUUACGAUCA: 0.181
CACCAGCAAUAUUACGUGUA: -0.896
AUGUAGCAAUAUUACGGAUA: -1.83
GCACAGCAAUAUUACGACCU: -0.325
AUAUAGCAAUAUUACGUUGC: -1.25
UCCUAGCAAUAUUACGCCCA: -0.0863
AUCCAGCAAUAUUACGGCGC: -0.114
GCCAAGCAAUAUUACGAAAA: -1.54

Fill in the blank: the reported self-splicing fitness (ln) of CUAUAGCAAUAUUACGUUGC is ____.
-2.37

Fill in the blank: the reported self-splicing fitness (ln) of CUAAAGCAAUAUUACGGUAA is ____.
-2.36
